Where these numbers come from: PubChem BioAssay (NCATS)

test: qHTS of pediatric cancer cell lines to identify multiple opportunities for drug repurposing: Primary screen for SJ-GBM2 cells (AID 1347091); conditions: SJ-GBM2 viability, CellTiter-Glo luminescence, 48 h; series mostly up to 46 µM
Results filed as inconclusive are left out. Active and inactive are the calls of the source. Calls follow the shape of the dose curve; as a rule, active = well fitted cell-killing curve with a large enough effect; inconclusive = small, poorly fitted or top-dose-only effect; inactive = no such curve, though single readings can be large or run the other way.
Pick one: T for active, F for inactive

Answered examples (4):
| molecule | label class |
| --- | --- |
| Cc1cnc(C(=O)O)c[n+]1[O-] | F |
| Cc1ccccc1C(C(=O)NC1CCCCC1)N(C(=O)Cn1ccnc1C)c1cccc(F)c1 (stereo not given) | F |
| Cc1[nH]c(C=C2C(=O)Nc3ccc(S(=O)(=O)Cc4c(Cl)cccc4Cl)cc32)c(C)c1C(=O)N1CCC[C@H]1CN1CCCC1 | T |
| CC(=O)c1ccc(S(=O)(=O)NC(=O)NC2CCCCC2)cc1 | F |

[ask] Kindly provide the recorded test outcome for the following molecule: C[C@H](NC(=O)c1sccc1OCc1ccc(Cl)cc1)c1ccccc1
[reply] F
